Collected Percent Effect values appear next to each entry.
assay-target: Arginase-2, mitochondrial (Homo sapiens)
Sequence (whole entry): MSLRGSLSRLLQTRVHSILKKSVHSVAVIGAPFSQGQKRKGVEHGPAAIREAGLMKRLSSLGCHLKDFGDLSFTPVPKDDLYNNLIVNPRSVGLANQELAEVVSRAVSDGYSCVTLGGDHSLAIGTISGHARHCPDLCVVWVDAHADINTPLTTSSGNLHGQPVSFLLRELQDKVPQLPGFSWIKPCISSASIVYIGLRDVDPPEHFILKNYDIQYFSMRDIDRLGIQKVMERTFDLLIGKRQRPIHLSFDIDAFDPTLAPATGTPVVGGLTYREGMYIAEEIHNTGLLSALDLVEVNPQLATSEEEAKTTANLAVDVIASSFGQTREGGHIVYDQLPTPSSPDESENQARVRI
test-method-notes: in vitro enzyme assay to detect the production of urea directly proportional to the activity of Arginase II
Assay type: functional
Parameters: scale not given: in the data most compounds retested in dose-response had high values
study-conditions: 33.3 µM
quantity: Percent Effect (%)

compound | experimental-value
O=C(c1ccn(-c2ccccc2Cl)n1)N1CCSCC1 | 1.74
CN(C)C1CCN(C(=O)NCc2ccc(Cn3cncn3)cc2)CC1 | -2.38
CCc1nc(CN2CCCN(c3ncnc4ccccc34)CC2)no1 | -12.4
CCOC(=O)N1CCN(Cc2ccc(OCc3nccn3C)cc2)CC1 | 1.42
CC(C)(C)c1nc(CN2CCC(c3nc4cc(Cl)ccc4o3)CC2)no1 | 4.76
N#CC1(C(=O)N2CCN(Cc3ccon3)CC2)CCC1 | 9.89
COC(=O)N1CCCN(C(=O)NCc2ccc(Cl)s2)CC1 | -4.09
COCC1CC2(CCN(C(=O)c3cc(C)oc3C)CC2)CN1C(C)C (centres undefined) | -1.25
CCC(NC(=O)C1CCN(S(C)(=O)=O)CC1)c1ccc(OC)c(C)c1 (centres undefined) | -4.14

----------
Collected Percent Effect values appear next to each entry.
assay-target: Arginase-2, mitochondrial (Homo sapiens) (UniProt P78540)
test-method-notes: in vitro enzyme assay to detect the production of urea directly proportional to the activity of Arginase II
Type: functional
Design: scale not given: in the data most compounds retested in dose-response had high values
study-conditions: 33.3 µM
quantity: Percent Effect (%)

compound | unit-annotation | experimental-value
Cc1cnn(CC2CCCCN2C(=O)c2ccnc(N(C)C)c2)c1 (stereo unspecified) | % | 4.42
COc1cc(C(=O)N(Cc2cnn(C)c2)C(C)C)ccc1OCC(N)=O | % | 0
Cc1nc(NC2CCCC2)cc(C2CCN2C(=O)c2cccnc2)n1 (stereo unspecified) | % | -3.48
CCc1nc(C2CCCN2CC(=O)Nc2sc(C)c(C)c2C)no1 (stereo unspecified) | % | -1.42
Cc1cnn(CC2CCCN2CCCc2nc3ccccc3o2)c1 (stereo unspecified) | % | -4.99
CCNC(=O)N(C)Cc1ccc(SC)c(OC)c1 | % | 7.92
c1csc(-c2nc(CNC3CCc4ncnn4C3)co2)c1 (stereo unspecified) | % | 2.13
CCN1CCN(S(=O)(=O)c2cc(Cl)c(Cl)cc2C)CC1 | % | -4.14
CC(C)CS(=O)(=O)N1C[C@H]2C[C@H](C(=O)NCc3ccccc3)[C@@H](C1)O2 | % | 0.88
CN1CC(=O)N(c2ccccc2)CC12CCN(Cc1nccs1)C2 (stereo unspecified) | % | -56.1
O=C(Cc1ccc(O)c(Cl)c1)N1CCCCC1CCn1cccn1 (stereo unspecified) | % | 0.476
